Exercise: state measured inhibition for each of the compounds provided.
biological target: Ubiquitin carboxyl-terminal hydrolase 7 (Homo sapiens, UniProt Q93009); experiment: Inhibition of recombinant USP7 catalytic domain (unknown origin) using UbA10 as substrate incubated with substrate for 75 mins followed by compound addition and measured after 1 hr by TR-FRET assay relative to control; parameters: concentration or dose not given beside the values
Sequence (Q93009 whole entry, looked up, the tested form may be a part): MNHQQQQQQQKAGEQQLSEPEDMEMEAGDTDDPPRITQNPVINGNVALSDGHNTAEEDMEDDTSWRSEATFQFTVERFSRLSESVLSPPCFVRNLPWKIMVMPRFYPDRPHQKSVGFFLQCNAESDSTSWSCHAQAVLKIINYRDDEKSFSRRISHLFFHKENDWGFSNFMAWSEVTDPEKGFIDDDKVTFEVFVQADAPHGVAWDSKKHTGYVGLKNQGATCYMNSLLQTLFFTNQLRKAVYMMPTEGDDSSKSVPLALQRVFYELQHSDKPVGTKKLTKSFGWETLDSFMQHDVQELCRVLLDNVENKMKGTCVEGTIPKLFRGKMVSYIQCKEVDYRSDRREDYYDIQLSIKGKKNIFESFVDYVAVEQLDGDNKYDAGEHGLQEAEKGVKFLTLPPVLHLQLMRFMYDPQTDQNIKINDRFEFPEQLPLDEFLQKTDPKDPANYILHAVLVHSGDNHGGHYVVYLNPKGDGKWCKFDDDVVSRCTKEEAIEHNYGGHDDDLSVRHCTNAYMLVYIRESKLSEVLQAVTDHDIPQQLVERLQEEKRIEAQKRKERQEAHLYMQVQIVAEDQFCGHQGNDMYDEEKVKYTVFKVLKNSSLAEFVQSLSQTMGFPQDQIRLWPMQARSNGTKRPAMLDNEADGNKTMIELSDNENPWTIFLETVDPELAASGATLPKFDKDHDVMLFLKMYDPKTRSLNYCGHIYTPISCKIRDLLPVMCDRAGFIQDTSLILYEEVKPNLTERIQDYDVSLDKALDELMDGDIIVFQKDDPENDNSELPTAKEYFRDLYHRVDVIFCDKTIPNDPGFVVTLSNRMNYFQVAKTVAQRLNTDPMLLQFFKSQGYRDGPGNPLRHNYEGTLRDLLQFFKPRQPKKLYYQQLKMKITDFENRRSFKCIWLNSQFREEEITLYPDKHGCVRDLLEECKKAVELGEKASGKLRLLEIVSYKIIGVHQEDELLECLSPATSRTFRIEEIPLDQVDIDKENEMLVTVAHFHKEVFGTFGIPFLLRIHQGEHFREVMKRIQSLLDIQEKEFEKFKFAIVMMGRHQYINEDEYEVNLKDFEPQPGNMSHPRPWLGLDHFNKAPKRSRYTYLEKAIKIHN
Give bare numbers, in %.

Before answering, review these 3 worked examples.
O=C(COc1cccc2ccccc12)N1CCC(O)(Cn2cnc3cc(Cl)ccc3c2=O)CC1 ... 9.83
O=C(c1ccccc1[N+](=O)[O-])N1CCC(O)(Cn2cnc3cc(Cl)ccc3c2=O)CC1 ... 4.29
O=C(c1ccccc1)N1CCC(O)(Cn2cnc3cc(Cl)ccc3c2=O)CC1 ... 18.6

# evaluate next
So what inhibition did `O=C(c1ccc([N+](=O)[O-])cc1)N1CCC(O)(Cn2cnc3cc(Cl)ccc3c2=O)CC1` get with Ubiquitin carboxyl-terminal hydrolase 7 (Homo sapiens, UniProt Q93009)?
58.3

* * *

Exercise: state measured inhibition at 50 µM for each of the compounds provided.
system: BGC-823; test: Cytotoxicity against human BGC-823 cells at 50 uM incubated for 4 hrs by MTT assay relative to control; format: functional
One number for each entry, in %.

O=C(CCc1ccccc1)N1CCC(O)(Cn2cnc3cc(NCCc4ccccc4)ccc3c2=O)CC1 ... 54
Nc1cc(Br)ccc1C(=O)N1CCC(O)(Cn2cnc3cc(Cl)ccc3c2=O)CC1 ... 52
O=C(CCc1ccccc1)N1CCC(O)(Cn2cnc3cc(Cl)ccc3c2=O)CC1 ... 8.45
O=C(CCc1ccccc1)N1CCC(O)(Cn2cnc3cc(NCCN4CCCC4)ccc3c2=O)CC1 ... 28.4

I'd like to know its inhibition at 50 µM. The compound in question is `O=C(CCc1ccccc1)N1CCC(O)(Cn2cnc3cc(NCc4ccccc4Cl)ccc3c2=O)CC1`
58.2

* * *

target: Ubiquitin carboxyl-terminal hydrolase 7 (Homo sapiens); assay: Inhibition of N-terminal His-FLAG-tagged human USP7 (2 to 1102 residues) expressed in baculovirus infected Sf9 cells using Ub-AMC as substrate preincubated with enzyme for 40 mins followed by substrate addition for 30 mins by fluorescence plate reader analysis
Sequence (Q93009 whole entry, the tested form may be a part): as the sequence (Q93009 whole entry, looked up, the tested form may be a part) above
readout type: pIC50
One number for each entry, as −log10 of the molar value.

Hi team, please reply with pIC50 for each item in this list.
1. CC(CC(=O)N1CCC(O)(Cn2cnc3cc(NCCN(C)C)ccc3c2=O)CC1)c1ccccc1 (configuration not stated)
2. O=C(CCc1ccccc1)N1CCC(O)(Cn2cnc3cc(NCCN4CCCC4)ccc3c2=O)CC1

1: 6.23; 2: 5.30
